system: rat mesangial cell line; test: TGF-β stimulated 3H-proline incorporation in mesangial cells (Example 5); assay type: cell-based; conditions: Rattus norvegicus, Mesangial cell; @ 100 μM; 5 ng/mL TGF-β1, 44 h; read-out: Mesangial Cell Assay TGF-β % reduction of TGF-β stimulation_proline inc.
inhibition at 100 µM values, listed per item

>  <molecule>
C#CCNC(=O)c1ccccc1NC(=O)/C=C/c1ccc(OC)c(OC)c1 [Analogue 15]

>  <unit-descriptor>
%

>  <inhibition at 100 µM>
75

$$$$
>  <molecule>
COc1cc(/C=C/C(=O)Nc2ccccc2C(=O)O)ccc1OCc1cn(CC(=O)Nc2ccccc2)nn1 [Analogue 20]

>  <unit-descriptor>
%

>  <inhibition at 100 µM>
90

$$$$
>  <molecule>
COc1ccc(/C=C/C(=O)Nc2ccccc2C(N)=O)cc1OC [Analogue 12]

>  <unit-descriptor>
%

>  <inhibition at 100 µM>
36

$$$$
